B1: ETS1 (parent)
chain: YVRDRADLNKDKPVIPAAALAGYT

variants of: B1; test: protein stability index of a GFP-peptide fusion (GPS, HEK-293T) (PSI 1-6); higher = more stable; conditions: c terminus: a fixed tail appended;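 note: lentivirally expressed fusions sorted by FACS into six bins by GFP to DsRed ratio, PSI derived from sequencing read proportions per bin multiplied by bin number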
So basically: protein stability index at 2 or higher? That is Met. Lower than 2? That is Not met.

The examples below pair each entry with its known result.
mutationAnnotation	labelValue
A21D	Met
Y23F	Met
K12F	Met
A19Y	Met

Query string: Reported protein stability index at or above 2? `A18V`
Result string: Not met

Query string: And for `D7R` ?
Result string: Met
